- experimental.protocol: yeast display, Sf9 membrane polyspecificity reagent, FACS + sequencing; frameworks hold sequencing errors
endpoint: polyreactivity (PSR sort gate)

entry.sequence | endpoint | result
QVQLVESGGGLVQAGGSLRLSCAASGSILGRYAMGWYRQAPGKERELVAAITSSGGRTYYADSVKGRFTISRDNAKNSVYLQMNSLKPEDTAVYYCAARYGRRLVWVPALLYDYWGQGTQVTVSS | polyreactivity (PSR sort gate) | high polyreactivity
QVQLVESGGGLVQAGGSLRLSCAASGSTSPAYAMGWYRQAPGKERELVAVITGSGASTYYADSVKGRFTISRDNAKNTVYLQMNSMKPEDTAVYYCAADVGFGVVFYDYWGQGTQVTVSS | polyreactivity (PSR sort gate) | low polyreactivity
QVQLVETGGGLVQAGGSLRLSCAASGFTSLTYAMGWYRQAPGKERELVAAITFSGGSTYYADSVKGRFTISRDNAKNTVYLQMNSLKPEDTAVYYCARDGLWYNAIWEYDYWGLGTQVTVSS | polyreactivity (PSR sort gate) | high polyreactivity
QVQLVESGGGLVQAGGSLRLSCAASGRILRYYAMGGYRQAPGKERELVAAITSGGSTTYYADSVKGRFTISRDNAKNTVYLQMNSLKPEDTAVYYCAADRARSSAKYDYWGQGTQVTVSS | polyreactivity (PSR sort gate) | low polyreactivity
QVQLVESGGGLVQAGGSLRLSCAASGLTFAENAMGWYRQAPGKERELVAAISASGGSTYYADSVKGRFTISRDNAKNTVFLQMNSLKPEDTAVYYCATRVAFLWPRRDYDYWGQGTQVTVSS | polyreactivity (PSR sort gate) | low polyreactivity

* * *

- experimental.protocol: yeast display, Sf9 membrane polyspecificity reagent, FACS + sequencing; frameworks hold sequencing errors

entry.sequence | polyreactivity (PSR sort gate)
QVQLVESGGGLVQAGASLRVSCAASGISLKYAMVWYRQAPGKERELVASISSRGTSTYYADSVKGRFTISRDNAKNTVYLQMNCLIPEDTAVYYCAARVRWWSPGGYWGQGTQVSVSS | high polyreactivity
QVQLEESGGGLVQAGGSLRLSCAASGRIFKSYTMGGYRQAPGKERELVAAITKSAASTYYADSVKGRFTISRDNAKNTVYLQMNSLKPVDTAVYYCAASRIGGGKVKFGYWGQGTQVTVSS | high polyreactivity
QVQLVESGGGLVQAGGSLRLSCAATGFTFASYAMRLYRQAAGKETELVAAITWGTGTTSYADSVKGRFTISRDNAKNTVYLQMNSLKPEDTAVYYCATRFRPITYRRRYDYWGQGTQVTVSS | low polyreactivity
PVQLVESGGGLVQAGGSLRLSCAASGSIFTAYDMGWYRQAPGKERELVAAINVSAGTTYYADSVKGRFTISRDNAKKTVYLQMISLIPEDTAVYYCAARDISLNAVGLPKEYNRDYWGQGTQVTVSS | low polyreactivity
QVQLVESGGGLVQAGGSLRLSCAASGFTFGPYAMGWSRQAPGKEREFVAAITSSGGSTYYADSVKGRFTISRDNAKNTVYLQMNSLKPEDTAVYYCNARSRGYVGKTPRRYYYWGQGTQVTVSS | high polyreactivity

* * *

- experimental.protocol: yeast display, Sf9 membrane polyspecificity reagent, FACS + sequencing; frameworks hold sequencing errors

entry.sequence | polyreactivity (PSR sort gate)
QVQLVESGGGLVQAGGSHRLSCAASGYTFARYAMGWYRQAPGKERELVAAISRSGGGTYYADSVKGRFTISRDNAKNTVYLQMNSLKPEDTAVYYCATDRVQGLGRFDYWGQGTQVTVSS | high polyreactivity
QVQLVESGGGLVQAGGSLRLSCAASGFIFGYYAMGWYRQAPGKEREFVAAISARSGRTYYADSVKGRFTISRDNAKNTVYLQMNSLKPEDTAVYYCNTAYAYSGRYDYWGQGTQVTVSS | high polyreactivity
QVQLVESGGGLVQAGGSLRLSCAASGITFTSYAMGWYRQAPGKERELVAAISSSGVRTYYADSVKGRFTISRDYAKNTVYLQMKSLKPEDTAVYYCATRRRVLYGYDYWGQGTQVTVSS | high polyreactivity
QVQLVESVGGLVQAGGSLRLSCAASGSTIGWNAMGWYRQAPGKERELVAAISSSGGSTNYADSVKGRFTISRDNAKNTVYLQMNCLKPEDTAVYYCAKGRRPGYGYGYWGHGTQVTVSS | low polyreactivity
QVQLVESGGGLVQAGGSLRFSCAASGRIFPAYAMGWYRQAPGKEREWVDAISRRGGSTYYADTVKGRFTISRDNAKNTVYLQMNSLNPEDTAVYYCAKEVWDSLGYPHSGDYWGQGTQVTVSS | low polyreactivity
